Source of measurements: ChEMBL document CHEMBL1275303

Test system: Bacillus subtilis
test description: Antimicrobial activity against Bacillus subtilis at 50 ug/mL after 24 hrs by well plate method
Format: functional
settings: read-out: IZ
quantity measured: zone of inhibition at 50 µg/mL (mm)
Your answer should be a plain number; it is taken to be in mm.

State the recorded zone of inhibition at 50 µg/mL for this entry: Cc1nnc(Cc2nn(Cc3cnc(Cl)s3)c(=O)c3ccccc23)o1
1

* * *

Test system: Aspergillus flavus
test description: Antimicrobial activity against Aspergillus flavus at 100 ug/mL after 72 hrs by well plate method
Type: functional
settings: read-out: IZ
Recorded zone of inhibition at 100 µg/mL determines the group label, using bottom range (below 4 mm), center range (4 mm to below 6 mm), top range (6 mm or more)

The following compounds have reported results that may help.
[[record]]
smiles_string = "O=c1c2ccccc2c(Cc2nnc(-c3ccsc3)o2)nn1Cc1cnc(Cl)s1"
class_assignment = "top range"

[[record]]
smiles_string = "Cc1nnc(Cc2nn(Cc3cnc(Cl)s3)c(=O)c3ccccc23)o1"
class_assignment = "bottom range"

[[record]]
smiles_string = "O=c1c2ccccc2c(Cc2nnc(-c3ccsc3)o2)nn1CCN1CCOCC1"
class_assignment = "top range"

[[record]]
smiles_string = "O=c1c2ccccc2c(Cc2nnc(C3CC3)o2)nn1CCN1CCOCC1"
class_assignment = "center range"


GET /class?item= Cc1nnc(Cc2nn(CCN3CCOCC3)c(=O)c3ccccc23)o1
bottom range

What do you get for O=c1c2ccccc2c(Cc2nnc(-c3ccc(Cl)nc3)o2)nn1CCN1CCOCC1 ?
top range

Another compound: O=c1c2ccccc2c(Cc2nnc(-c3ccc(Cl)nc3)o2)nn1Cc1ccc(Cl)nc1
top range

// repeat for O=c1c2ccccc2c(Cc2nnc(C(F)(F)F)o2)nn1Cc1ccc(Cl)nc1 and report
bottom range

Thanks! And Cc1ccccc1-c1nnc(Cc2nn(Cc3cnc(Cl)s3)c(=O)c3ccccc23)o1 ?
bottom range

Same question for Cc1ncc([N+](=O)[O-])n1CCO please.
top range

Cool, now O=c1c2ccccc2c(Cc2nnc(-c3ccc(Cl)nc3)o2)nn1Cc1cnc(Cl)s1
top range

Record: O=c1c2ccccc2c(Cc2nnc(C(F)(F)F)o2)nn1CCN1CCOCC1
center range

What about O=c1c2ccccc2c(Cc2nnc(-c3ccc(Cl)cc3)o2)nn1CCN1CCOCC1 ?
bottom range

Record: O=c1c2ccccc2c(Cc2nnc(-c3ccc(Cl)cc3)o2)nn1Cc1cnc(Cl)s1
center range

Next up: O=c1c2ccccc2c(Cc2nnc(-c3ccsc3)o2)nn1Cc1ccc(Cl)nc1
top range

What about this compound? O=c1c2ccccc2c(Cc2nnc(C3CC3)o2)nn1Cc1ccc(Cl)nc1
center range

Can you handle Cc1nnc(Cc2nn(Cc3ccc(Cl)nc3)c(=O)c3ccccc23)o1 next?
center range

Quick one: O=c1c2ccccc2c(Cc2nnc(C(F)(F)F)o2)nn1Cc1cnc(Cl)s1
center range

* * *

compounds and their reported zone of inhibition at 50 µg/mL
Test system: Candida albicans
test description: Antimicrobial activity against Candida albicans at 50 ug/mL after 72 hrs by well plate method
Format: functional
settings: read-out: IZ
Please reply with the bare figure in mm and do not write the unit itself.

Recorded zone of inhibition at 50 µg/mL, per entry:
[[record]]
smiles_string = "Cc1nnc(Cc2nn(Cc3cnc(Cl)s3)c(=O)c3ccccc23)o1"
quantity_measured = "zone of inhibition at 50 µg/mL"
assay_value = 1

[[record]]
smiles_string = "Cc1nnc(Cc2nn(CCN3CCOCC3)c(=O)c3ccccc23)o1"
quantity_measured = "zone of inhibition at 50 µg/mL"
assay_value = 1

[[record]]
smiles_string = "Cc1ccccc1-c1nnc(Cc2nn(Cc3ccc(Cl)nc3)c(=O)c3ccccc23)o1"
quantity_measured = "zone of inhibition at 50 µg/mL"
assay_value = 0

[[record]]
smiles_string = "O=c1c2ccccc2c(Cc2nnc(-c3ccc(F)cc3)o2)nn1Cc1ccc(Cl)nc1"
quantity_measured = "zone of inhibition at 50 µg/mL"
assay_value = 2.5


API: the following record is the query input.
Quick one: zone of inhibition at 50 µg/mL of O=c1c2ccccc2c(Cc2nnc(-c3ccc(Cl)cc3)o2)nn1Cc1ccc(Cl)nc1 ?
3

* * *

Test system: Nannizzia gypsea
test description: Antimicrobial activity against Microsporum gypseum at 50 ug/mL after 72 hrs by well plate method
Type: functional
settings: read-out: IZ
quantity measured: zone of inhibition at 50 µg/mL

[[record]]
smiles_string = "O=c1c2ccccc2c(Cc2nnc(-c3ccc(Cl)nc3)o2)nn1Cc1ccc(Cl)nc1"
quantity_measured = "zone of inhibition at 50 µg/mL"
assay_value = "4 mm"

[[record]]
smiles_string = "O=c1c2ccccc2c(Cc2nnc(-c3ccc(Cl)nc3)o2)nn1Cc1cnc(Cl)s1"
quantity_measured = "zone of inhibition at 50 µg/mL"
assay_value = "4 mm"

[[record]]
smiles_string = "O=c1c2ccccc2c(Cc2nnc(-c3ccsc3)o2)nn1Cc1cnc(Cl)s1"
quantity_measured = "zone of inhibition at 50 µg/mL"
assay_value = "6.5 mm"


If you can, please state the reported zone of inhibition at 50 µg/mL value of O=c1c2ccccc2c(Cc2nnc(-c3ccc(Cl)cc3)o2)nn1Cc1ccc(Cl)nc1 .
1 mm

Input O=c1c2ccccc2c(Cc2nnc(C3CC3)o2)nn1Cc1ccc(Cl)nc1
4.5 mm

Field entry: O=c1c2ccccc2c(Cc2nnc(-c3ccc(F)cc3)o2)nn1Cc1cnc(Cl)s1
4 mm

Follow-up item: Cc1nnc(Cc2nn(CCN3CCOCC3)c(=O)c3ccccc23)o1
0 mm

Same lookup for O=c1c2ccccc2c(Cc2nnc(-c3ccc(Cl)cc3)o2)nn1CCN1CCOCC1 , please.
1 mm

And then O=c1c2ccccc2c(Cc2nnc(-c3ccc(Cl)nc3)o2)nn1CCN1CCOCC1 , what is it?
4 mm

Can you check Cc1ccccc1-c1nnc(Cc2nn(Cc3cnc(Cl)s3)c(=O)c3ccccc23)o1 next?
1 mm

Next entry: Cc1ccccc1-c1nnc(Cc2nn(CCN3CCOCC3)c(=O)c3ccccc23)o1
1 mm

For O=c1c2ccccc2c(Cc2nnc(C3CC3)o2)nn1CCN1CCOCC1 then?
3.5 mm

Same question for O=c1c2ccccc2c(Cc2nnc(C(F)(F)F)o2)nn1Cc1ccc(Cl)nc1 please.
3 mm

Another compound to look at: O=c1c2ccccc2c(Cc2nnc(C(F)(F)F)o2)nn1Cc1cnc(Cl)s1
3 mm

Now consider Cc1nnc(Cc2nn(Cc3ccc(Cl)nc3)c(=O)c3ccccc23)o1 and answer again.
0 mm

* * *

The reader will find reported zone of inhibition at 50 µg/mL values listed item by item below.
Tested on: Nannizzia gypsea
test description: Antimicrobial activity against Microsporum gypseum at 50 ug/mL after 72 hrs by well plate method
Assay type: functional
settings: read-out: IZ
Give the value in mm but do not write mm after it.

These recorded examples may help you get a feel for the data.
[[record]]
smiles_string = "O=c1c2ccccc2c(Cc2nnc(C(F)(F)F)o2)nn1CCN1CCOCC1"
test_system = "Nannizzia gypsea"
unit_descriptor = "mm"
assay_value = 2

[[record]]
smiles_string = "Cc1nnc(Cc2nn(Cc3cnc(Cl)s3)c(=O)c3ccccc23)o1"
test_system = "Nannizzia gypsea"
unit_descriptor = "mm"
assay_value = 0

[[record]]
smiles_string = "O=c1c2ccccc2c(Cc2nnc(-c3ccsc3)o2)nn1Cc1ccc(Cl)nc1"
test_system = "Nannizzia gypsea"
unit_descriptor = "mm"
assay_value = 6.5

[[record]]
smiles_string = "O=c1c2ccccc2c(Cc2nnc(-c3ccc(F)cc3)o2)nn1Cc1ccc(Cl)nc1"
test_system = "Nannizzia gypsea"
unit_descriptor = "mm"
assay_value = 4

[[record]]
smiles_string = "O=c1c2ccccc2c(Cc2nnc(-c3ccc(Cl)cc3)o2)nn1Cc1cnc(Cl)s1"
test_system = "Nannizzia gypsea"
unit_descriptor = "mm"
assay_value = 1

[[record]]
smiles_string = "Cc1ccccc1-c1nnc(Cc2nn(Cc3ccc(Cl)nc3)c(=O)c3ccccc23)o1"
test_system = "Nannizzia gypsea"
unit_descriptor = "mm"
assay_value = 1

[[record]]
smiles_string = "Cc1ncc([N+](=O)[O-])n1CCO"
test_system = "Nannizzia gypsea"
unit_descriptor = "mm"
assay_value = 14

[[record]]
smiles_string = "O=c1c2ccccc2c(Cc2nnc(-c3ccc(F)cc3)o2)nn1CCN1CCOCC1"
test_system = "Nannizzia gypsea"
unit_descriptor = "mm"
assay_value = 4

[[record]]
smiles_string = "O=c1c2ccccc2c(Cc2nnc(-c3ccsc3)o2)nn1CCN1CCOCC1"
test_system = "Nannizzia gypsea"
unit_descriptor = "mm"
assay_value = 7.5


Short answer please: zone of inhibition at 50 µg/mL, Nannizzia gypsea, entry O=c1c2ccccc2c(Cc2nnc(C3CC3)o2)nn1Cc1cnc(Cl)s1
4.5

* * *

System: Bacillus subtilis
test description: Antimicrobial activity against Bacillus subtilis at 50 ug/mL after 24 hrs by well plate method
Assay type: functional
settings: read-out: IZ
quantity measured: zone of inhibition at 50 µg/mL (mm)
All answers are understood in mm, so give the number only.

Please give the measured zone of inhibition at 50 µg/mL for this compound: O=c1c2ccccc2c(Cc2nnc(-c3ccc(Cl)cc3)o2)nn1Cc1ccc(Cl)nc1
3.5
